Answer each item with its documented Inhibition of ligand binding, Dop. D2L.
experimentalSystem: human recombinant dopamine D2L receptor (Homo sapiens, UniProt P14416)
Construct: expressed in transfected cells; host or cells: CHO cells
Sequence (P14416 whole entry): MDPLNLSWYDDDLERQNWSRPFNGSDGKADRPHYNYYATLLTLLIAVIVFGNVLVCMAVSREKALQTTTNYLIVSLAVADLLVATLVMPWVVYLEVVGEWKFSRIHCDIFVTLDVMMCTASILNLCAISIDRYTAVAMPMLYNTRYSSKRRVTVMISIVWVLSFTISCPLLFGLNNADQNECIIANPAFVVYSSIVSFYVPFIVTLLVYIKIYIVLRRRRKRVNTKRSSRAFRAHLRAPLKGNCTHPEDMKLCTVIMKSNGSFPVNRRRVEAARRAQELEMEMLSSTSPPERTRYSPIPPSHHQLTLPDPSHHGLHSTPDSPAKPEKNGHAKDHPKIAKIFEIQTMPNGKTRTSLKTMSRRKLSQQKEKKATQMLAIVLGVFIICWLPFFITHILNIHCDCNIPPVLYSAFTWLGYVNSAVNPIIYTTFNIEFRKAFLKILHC
testDescription: Dopamine D2L radioligand binding ([3H]Spiperone); also: test concentration or dose not given here
setupConditions: percent inhibition of specific binding
Please state the figure in %; there is no need to write the unit.

// lookup Inhibition of ligand binding, Dop. D2L for Cc1ccc(CCn2c3c(c4cc(Cl)ccc42)CN(c2cccc(C(F)(F)F)c2)CC3)cn1 2

Fill blank: measured Inhibition of ligand binding, Dop. D2L of the molecule CN1CCc2c(c3cc(Cl)ccc3n2CCc2cncnc2)C1 is ____. 17

Which Inhibition of ligand binding, Dop. D2L value is on record for CC1CCN(C(=O)Cn2c3c(c4cc(Cl)ccc42)CN(C)CC3)CC1 ? −1

Dear colleague, I am looking for the recorded Inhibition of ligand binding, Dop. D2L of the following molecule: Cc1ccc2c(c1)c1c(n2CCc2cnc(C)nc2)CCN(C)C1 8

I'd like to know its Inhibition of ligand binding, Dop. D2L. The molecule in question is CN1CCN(CCn2c3c(c4cc(Cl)ccc42)CN(C)CC3)CC1 −12

If you can, please state the reported Inhibition of ligand binding, Dop. D2L value of Cc1ccc2c(c1)c1c(n2CCc2ccc(OC(C)(C)C)cc2)CCN(C)C1 . 44

Param item = CN1CCc2c(c3ccccc3n2CCc2ccccc2)C1 ; retrieve measured Inhibition of ligand binding, Dop. D2L. 70

For the molecule shown here, Cc1ccc2c(c1)c1c(n2CCc2ccc(F)cc2)CCN(C)C1 , give the reported Inhibition of ligand binding, Dop. D2L. 88

Looking for the measured Inhibition of ligand binding, Dop. D2L of Cc1ccc2c(c1)c1c(n2CC(C)c2ccc(F)cc2)CCN(C)C1 (stereo not shown) , can you help? 76

Param item = CCOC(=O)N1CCc2c(c3cc(Br)ccc3n2CCc2ccc(C)nc2)C1 ; retrieve measured Inhibition of ligand binding, Dop. D2L. −7

# input molecule: Cc1cnc(CCn2c3c(c4cc(Cl)ccc42)CN(C)CC3)cn1 ; wanted: its Inhibition of ligand binding, Dop. D2L 24

Fill blank: measured Inhibition of ligand binding, Dop. D2L of the molecule CCc1ccc(CCn2c3c(c4cc(C)ccc42)CN(C)CC3)cn1 is ____. 51

Any idea what Inhibition of ligand binding, Dop. D2L was measured for CN1CCc2c(c3cc(Cl)ccc3n2CCC(=O)N2CCOCC2)C1 ? 6

Look up Inhibition of ligand binding, Dop. D2L: CC(C)c1ccc2c(c1)c1c(n2CCc2ccc(C(F)(F)F)nc2)CCN(C)C1 29

I have this molecule here, CCc1ccc2c(c1)c1c(n2CCc2ccc(C(F)(F)F)nc2)CCN(C)C1 , and I need its recorded Inhibition of ligand binding, Dop. D2L. 38

Sample CN1CCc2c(c3cc(Cl)ccc3n2CCc2ccccn2)C1 — what was its Inhibition of ligand binding, Dop. D2L? 29

Any idea what Inhibition of ligand binding, Dop. D2L was measured for CN1CCc2c(c3cc(Cl)ccc3n2CCc2cncc(C(F)(F)F)c2)C1 ? −7

Report Inhibition of ligand binding, Dop. D2L for CCOC(=O)c1ccc(CCn2c3c(c4cc(C)ccc42)CN(C)CC3)cn1 please. 4

Entry Cc1ccc(CCn2c3c(c4ccccc42)CN(C)CC3)cc1 has what Inhibition of ligand binding, Dop. D2L? 62

Please report the recorded Inhibition of ligand binding, Dop. D2L for COc1ccc(CCn2c3c(c4cc(Cl)ccc42)CN(C)CC3)cc1F . 81

Item under review: CN1CCc2c(c3cc(F)ccc3n2CCc2ccc(F)cc2)C1 . Reported Inhibition of ligand binding, Dop. D2L? 96

Request the reported Inhibition of ligand binding, Dop. D2L associated with CCc1ccc(CCn2c3c(c4cc(Cl)ccc42)CN(C)CC3)cn1 40

What does the record list as Inhibition of ligand binding, Dop. D2L for CN1CCc2c(c3cc(Cl)ccc3n2CCC(=O)N2CCCC2)C1 ? 9

Recorded Inhibition of ligand binding, Dop. D2L for CC(=O)N1CCN(C(=O)Cn2c3c(c4cc(Cl)ccc42)CN(C)CC3)CC1 , please? 0

Need Inhibition of ligand binding, Dop. D2L, item Cc1ccc2c(c1)c1c(n2CCc2cncc(C(F)(F)F)c2)CCN(C)C1 −1

// query Inhibition of ligand binding, Dop. D2L value for entry CN1CCc2c(c3cc(Cl)ccc3n2CC(=O)N2CCS(=O)(=O)CC2)C1 −7

Item under review: CC(Cn1c2c(c3ccccc31)CN(C)CC2)c1ccc(F)cc1 (stereo not shown) . Reported Inhibition of ligand binding, Dop. D2L? 88

Quick check: Inhibition of ligand binding, Dop. D2L of COc1ccc(CCn2c3c(c4cc(C)ccc42)CN(C)CC3)cc1 ? 87

Can you share its Inhibition of ligand binding, Dop. D2L? I mean this molecule: Cc1ccc(CCn2c3c(c4cc(Cl)ccc42)CN(C)CC3)cn1 32

Reported Inhibition of ligand binding, Dop. D2L, molecule Cc1ccc2c(c1)c1c(n2CCc2cnccn2)CCN(C)C1 : ____ −3

For Cc1ccc2c(c1)c1c(n2CC(=O)N2CCN(C)CC2)CCN(C)C1 , what is its reported Inhibition of ligand binding, Dop. D2L? −7

Endpoint output: Inhibition of ligand binding, Dop. D2L of CN1CCc2c(c3cc(Cl)ccc3n2CC(=O)N2CCSCC2)C1 . Value? −1

Sample CN1CCc2c(c3cc(Cl)ccc3n2CC(=O)N2CCOCC2)C1 — what was its Inhibition of ligand binding, Dop. D2L? −1

Query: Inhibition of ligand binding, Dop. D2L; subject: CN1CCc2c(c3cc(Cl)ccc3n2CCc2ccc(C(F)(F)F)nc2)C1 21

Inhibition of ligand binding, Dop. D2L lookup needed for CN1CCc2c(c3cc(Cl)ccc3n2CCc2cncc(Cl)c2)C1 , thanks. 32

Looking for the measured Inhibition of ligand binding, Dop. D2L of Cc1ccc2c(c1)c1c(n2CCc2ccc(CO)nc2)CCN(C)C1 , can you help? 21

Need Inhibition of ligand binding, Dop. D2L of Cc1ccc2c(c1)c1c(n2CC(=O)N2CCCC(C)C2)CCN(C)C1 (stereo not shown) , thanks. −12
